Experiment: Inhibition of RANTES-induced migration of human embryonic kidney (CCR1/HEK) cell transfectants
pIC50: −log10 of the molar value.
METRIC_NAME: pIC50

INSERT INTO results (compound, value) VALUES
  ('CC(C)CCCC(C)[C@H]1CC[C@H]2[C@@H]3CCC4C[C@@H](CCC=C(c5cc(Cl)c(O)c(C(=O)NCC(=O)O)c5)c5cc(Cl)c(O)c(C(=O)NCC(=O)O)c5)CC[C@]4(C)[C@H]3CC[C@]12C (some centres not stated)', 5.00),
  ('CC(C)CCCC(C)[C@H]1CC[C@H]2[C@@H]3CCC4C[C@@H](CCC=C(c5cc(Cl)c(O)c(C(=O)O)c5)c5cc(Cl)c(O)c(C(=O)O)c5)CC[C@]4(C)[C@H]3CC[C@]12C (some centres not stated)', 6.59);
